- TESTED ON: human activated kallikrein enzyme (Homo sapiens)
- Sequence (P03952 391-638 limits assumed): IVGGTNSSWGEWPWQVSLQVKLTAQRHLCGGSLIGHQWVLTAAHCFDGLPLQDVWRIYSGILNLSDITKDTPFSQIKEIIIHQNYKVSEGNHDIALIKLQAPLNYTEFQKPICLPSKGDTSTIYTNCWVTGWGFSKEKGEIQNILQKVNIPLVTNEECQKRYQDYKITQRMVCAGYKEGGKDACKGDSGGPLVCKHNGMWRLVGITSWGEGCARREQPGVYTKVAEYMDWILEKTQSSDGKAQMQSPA
- Sequence (P03952 20-390 partner limits assumed): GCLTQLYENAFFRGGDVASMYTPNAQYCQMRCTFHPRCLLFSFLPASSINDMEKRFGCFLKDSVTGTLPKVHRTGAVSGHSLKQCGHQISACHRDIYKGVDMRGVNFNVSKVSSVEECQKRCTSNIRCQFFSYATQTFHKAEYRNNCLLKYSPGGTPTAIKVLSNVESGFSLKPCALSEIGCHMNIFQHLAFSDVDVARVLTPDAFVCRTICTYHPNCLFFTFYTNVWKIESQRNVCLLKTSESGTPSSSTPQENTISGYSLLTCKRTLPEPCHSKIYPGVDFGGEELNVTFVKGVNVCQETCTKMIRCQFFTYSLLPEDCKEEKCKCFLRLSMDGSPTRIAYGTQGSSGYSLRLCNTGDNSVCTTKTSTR
- EXPERIMENT NOTES: Plasma kallikrein inhibition, fluorogenic PFR-AMC substrate, 500 pM activated kallikrein format
- Format: biochemical
- CONDITION DESCRIPTION: 500 pM activated kallikrein, 300 uM PFR-AMC, 30 min preincubation, 10 min reaction; read-out: Primary Dose Response Assay: Average EC50
ATTRIBUTE MEASURED: EC50

Lookup: Look up and state reported EC50 for CN1C(=O)CN(c2cc(C3CC3)cn3cc(CNc4cc(NC(=O)[C@H]5C[C@@H]5c5nccc(C(F)(F)F)n5)ncn4)nc23)C1=O (racemic) [Example I-165]
Found: 1 to 10 nM

Lookup: Note EC50 for the compound shown: O=C(Nc1cc(NCc2cn3cc(C4CC4)ccc3n2)ncn1)[C@H]1C[C@@H]1c1cccc(Cl)c1 (racemic) [Example 55]
Found: 1 to 10 nM

Lookup: Report measured EC50; entry is COC(=O)CCc1cc(C2CC2)cn2cc(CNc3ccnc(NC(=O)[C@H]4C[C@@H]4c4cccc(Cl)c4)c3)nc12 [Example I-239]
Found: < 1 nM

Lookup: Look up EC50 of CN1C(=O)CN(c2cc(C3CC3)cn3cc([C@H]4C[C@H](O)CN4c4cc(NC(=O)[C@H]5C[C@@H]5c5cc(Cl)ccn5)ncn4)nc23)C1=O [Example 478] and report it.
Found: < 1 nM

Lookup: Give a short answer stating reported EC50 for Cc1cc(NC(=O)[C@H]2C[C@@H]2c2nccc(C)n2)cc(N[C@H](C)c2cn3cc(C4CC4)cc(N4CC(=O)N(C)C4=O)c3n2)n1 [Example I-246] .
Found: < 1 nM

Lookup: Given the compound Cc1ccnc([C@H]2C[C@@H]2C(=O)Nc2cc(NCc3cn4cc(C5CC5)cc(N5CCCC5=O)c4n3)ncn2)n1 [Example 377] , write its reported EC50.
Found: < 1 nM

Lookup: Let me know recorded EC50 for O=C(Nc1cc(NCc2cn3cc(C4CC4)cc(N4CCN5CCCC5C4)c3n2)ccn1)[C@H]1C[C@@H]1c1cccc(Cl)c1 (stereo partly drawn) [Example I-231] , thanks.
Found: < 1 nM

Lookup: Answer with the recorded EC50 for the compound listed here: Cc1ccnc([C@@H]2C[C@H]2C(=O)Nc2cc(OCc3cn4cc(C5CC5)cc(N5CC(=O)N(C)C5=O)c4n3)ncn2)n1 (single isomer, unassigned) [Example 29]
Found: 100 to 1000 nM

Lookup: State its EC50: Cc1ccnc([C@H]2C[C@@H]2C(=O)Nc2cc(N3C[C@@H](O)C[C@@H]3c3cn4cc(C5CC5)cc(N5CC6CC6C5=O)c4n3)ncn2)n1 (relative stereo) [Example 482]
Found: < 1 nM

Lookup: For CN1CCN(c2cc(C3CC3)cn3cc(CNc4cc(NC(=O)[C@H]5C[C@@H]5c5cc(Cl)ccn5)ncn4)nc23)C(=O)C1 (racemic) [Example I-195] , write its EC50.
Found: < 1 nM

Lookup: Using known records, supply EC50 for N#CCCc1cc(C2CC2)cn2cc(CNc3ccnc(NC(=O)[C@H]4C[C@@H]4c4cccc(Cl)c4)c3)nc12 (racemic) [Example 87]
Found: 1 to 10 nM

Lookup: In one line, give reported EC50 of the entry O=C(Nc1cc(NCc2cn3cc(C4CC4)cc(N4CCN(C5CC5)CC4)c3n2)ncn1)[C@H]1C[C@@H]1c1cccc(Cl)c1 [Example I-201] .
Found: 1 to 10 nM
